Molecular target: NEDD4 890-928, P46934
Sequence (P46934 890-928): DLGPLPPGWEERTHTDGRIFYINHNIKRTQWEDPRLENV

{"columns": ["binder", "selected by phage display"],
 "data": [
  ["ASDPPPPYSDFHPNNQ [ABRAXAS2, Q15018]", "confidence 3 (active)"],
  ["HLPQAPPYTDAPPAYS [DAZAP2, Q15038]", "confidence 3 (active)"],
  ["TAPPTYTETLSTAPLA [SYNPO, Q8N3V7]", "confidence 3 (active)"]
]}
